system: JEV (Japanese encephalitis virus); assay: Inhibition of viral replication (CPE) at cellular level, JEV in Vero; details: Japanese encephalitis virus, Vero
Reported IC50 values for a set of compounds
Numbers only; they are read as nM.

CN(/N=C/c1ccc(C(F)(F)F)cc1C(=O)O)c1nc(-c2ccccc2Cl)cs1 [Compound 8] = 100

Please give the measured IC50 for this compound: CN(/N=C/c1ccccc1C(=O)O)c1nc(-c2ccccc2Cl)cs1 [Compound 1]
150

Please give the measured IC50 for this compound: O=C(O)c1cc(F)ccc1/C=N/Nc1nc(-c2ccccc2Cl)cs1 [Compound 10-1]
160

Please give the measured IC50 for this compound: Cc1ccc(/C=N/N(C)c2nc(-c3ccccc3Cl)cs2)c(C(=O)O)c1 [Compound 9]
150
